TARGET_OF_ASSAY: MAGE-A11:PCF11 interaction (GST-MAGE-A11 and FAM-PCF11_4) (Homo sapiens, UniProt P43364)
Construct: GST-MAGE-A11 MHD (human MAGE-A11 MHD amino acid 218-429); made in house; host or cells: E. coli BL21(DE3)
Sequence (P43364 218-429): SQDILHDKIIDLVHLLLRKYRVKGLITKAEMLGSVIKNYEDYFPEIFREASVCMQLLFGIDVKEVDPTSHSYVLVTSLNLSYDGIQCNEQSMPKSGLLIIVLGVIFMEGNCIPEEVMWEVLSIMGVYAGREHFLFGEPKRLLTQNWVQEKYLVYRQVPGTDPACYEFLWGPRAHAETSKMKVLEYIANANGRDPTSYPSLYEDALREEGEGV
ASSAY_PROCEDURE: TR-FRET primary / single point screen at 15 µM
Assay type: binding
TEST_SETTINGS: single point TR-FRET screening of 797 quinoline compounds against MAGE-A11:PCF11
Procedure: The TR-FRET assay buffer with a formula of 50 mM Tris pH 7.5, 20 mM MgCl2, 0.1 mg/ml BSA and 1 mM DTT was freshly prepared before each experiment. […] After incubation, the fluorescent emission signals at 520 nm and 490 nm channels of individual wells were measured with a PHERAstar FS plate reader (BMG Labtech; Durham, NC, USA) by using a 340 nm excitation filter, 100 µs delay time, and 200 µs integration time. […] The TR-FRET signals for individual wells were measured with a PHERAstar FS plate reader. […]
Criterion: percent inhibition (TR-FRET) meeting or surpassing 0.9. Met: condition met. Not met: condition not met.

Form field: percent inhibition (TR-FRET) at least 0.9? Entry: CCCN(CCCNc1c2ccc(Cl)cc2nc2ccc(OC)cc12)Cc1ccc(OC)cc1
condition not met

Form field: percent inhibition (TR-FRET) at least 0.9? Entry: Clc1ccc2c(NC3CCN(CCCc4ccccc4)CC3)ccnc2c1
condition met

Form field: percent inhibition (TR-FRET) at least 0.9? Entry: COc1ccc(CN(CCCCNc2ccnc3cc(Cl)ccc23)Cc2ccccc2)cc1F
condition met

Form field: percent inhibition (TR-FRET) at least 0.9? Entry: Clc1ccc2c(NC3CCN(Cc4ccc5c(c4)OCO5)CC3)ccnc2c1
condition met

Form field: percent inhibition (TR-FRET) at least 0.9? Entry: CCN1CCN(c2c(S(=O)(=O)c3ccc(Cl)cc3)cnc3ccc(C)cc23)CC1
condition not met

Form field: percent inhibition (TR-FRET) at least 0.9? Entry: COc1ccc2ncc(S(=O)(=O)c3ccc(C)cc3)c(N3CCN(c4ccccc4F)CC3)c2c1
condition met

Form field: percent inhibition (TR-FRET) at least 0.9? Entry: COc1ccc2nc3cc(Cl)ccc3c(NCCCNCc3ccccc3C(F)(F)F)c2c1
condition not met

Form field: percent inhibition (TR-FRET) at least 0.9? Entry: CCCCCN(CCCCNc1ccnc2cc(Cl)ccc12)Cc1ccccc1
condition met

Form field: percent inhibition (TR-FRET) at least 0.9? Entry: Clc1ccc2c(NCCCCN(Cc3ccccc3)Cc3ccc4[nH]ccc4c3)ccnc2c1
condition met

Form field: percent inhibition (TR-FRET) at least 0.9? Entry: CCc1nc2ccccc2c(NC(=O)CN2CCCCC2)c1C
condition met

Form field: percent inhibition (TR-FRET) at least 0.9? Entry: Cn1cc(CN(CCCCNc2ccnc3cc(Cl)ccc23)Cc2ccccc2)c2ccccc21
condition not met
